System: glutathione
Assay: GSH stability (glutathione reactivity) assay by LC-MS/MS
Assay type: physicochemical
Conditions: PBS containing 5 mM reduced glutathione; PBS + 5 mM GSH; extrapolated from 240 min assay
Source text: Furthermore, we wanted to determine the kinetics of the BRD4BD2-DCAF16 interaction given its covalent nature. […] Additionally, to understand the relationship between ternary complex formation kinetics and warhead reactivity we measured the depletion of the covalent analogs in the presence of glutathione using MS (Table S2). […].
Recorded measurements of half-life, one per entry
Give just the numeric value; h need not be written.

- SMILES CODE: "Cc1sc2c(c1C)C(c1ccc(C#CC=O)cc1)=N[C@@H](CC(=O)OC(C)(C)C)c1nnc(C)n1-2"
  half-life, h: 8.83
- SMILES CODE: "Cc1sc2c(c1C)C(c1ccc(NC(=O)CCl)cc1)=N[C@@H](CC(=O)OC(C)(C)C)c1nnc(C)n1-2"
  half-life, h: 8.85

For the record `C=CC(=O)Nc1ccc(C2=N[C@@H](CC(=O)OC(C)(C)C)c3nnc(C)n3-c3sc(C)c(C)c32)cc1` , what value of half-life is listed for glutathione? 9.53
